Value source: a melting point compilation (Tetko et al.; mined from patent text by program, amines drawn as free bases though some values may be those of a salt)

reportedEndpoint: melting point

Worked examples, 3 molecules total:
* CC(C)(CNc1ccnc2cc(Cl)ccc12)NCc1ccncc1 | 157 to 159 °C
* Cc1ccc(S(=O)(=O)NC(=O)c2cccc(OCc3csc(-c4ccccc4)n3)c2)cc1 | 170 to 172 °C
* O=C1CCCc2cc(F)cc(F)c21 | 57 to 58 °C

Please give melting point, item by item, for the list that follows.
1. O=C(C1CCC(Nc2nccc(-n3cc(Cc4ccc(-c5ccncc5)cc4)nn3)n2)CC1)N1CCC(O)CC1 (stereo unspecified)
2. OC(CCc1ccc2c(c1)OCO2)C1CC1 (stereo unspecified)
3. COC(=O)N[C@@H]1Cc2ccccc2N(OC)C1=O
4. CCC(CC)c1ccc(C(F)(F)F)c2[nH]c(=O)n(C)c12

[out]
["266 to 267 °C", "64 to 65 °C", "117 to 119 °C", "205 to 206 °C"]
